Target: T1, fetuin (Bos taurus (Bovine), UniProt P12763, sialylated glycans (multiple copies of the αNeu5Ac(2→3)βGal(1→4)βGlc- structure))
T1 sequence: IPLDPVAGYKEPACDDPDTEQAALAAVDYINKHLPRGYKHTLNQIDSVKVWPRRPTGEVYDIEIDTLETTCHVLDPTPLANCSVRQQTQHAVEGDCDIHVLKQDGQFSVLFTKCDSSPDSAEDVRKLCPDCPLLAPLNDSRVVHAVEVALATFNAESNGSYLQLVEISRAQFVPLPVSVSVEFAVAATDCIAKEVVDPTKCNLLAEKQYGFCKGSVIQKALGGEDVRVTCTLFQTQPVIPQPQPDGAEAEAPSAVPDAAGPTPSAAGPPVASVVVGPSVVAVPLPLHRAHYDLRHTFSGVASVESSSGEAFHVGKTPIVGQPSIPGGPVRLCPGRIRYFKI
Test: inhibition ELISA; competitor ACS2P1-biotin on coated fetuin; concentration giving -50% (called IC50 in paragraph 228, n=2)
No end group written: not given here.
Measured Quantity: pIC50
When answering, recall that pIC50 equals minus log10 of the concentration in mol/L, and write that number alone.

Quick note, pIC50 for PQEQITQHGSPYGRC (also: acetylated, site not given here) [ACS2P1] landed at 5.39
